Measured On: green fluorescent protein (GFP) variant GFP29, tag MEFHHSLVH, SEQ ID NO: 12
Assay Info: Cu(II)-VBIDA affinity for the tag (Table 1)
Test Settings: r^2 ≈ 0.98
Experimental Endpoint: pKd
// scale note: pKd = -log10(conc_M); give the bare number

[Q] Return reported pKd. Input molecule: `C=Cc1ccc(CN(CC(=O)O)CC(=O)O)cc1.[Cu+2]`
[A] 4.00

---

Measured On: green fluorescent protein (GFP) variant GFP24, tag MEFHLRARH, SEQ ID NO: 7
Assay Info: Cu(II)-VBIDA affinity for the tag (Table 1)
Test Settings: r^2 ≈ 0.98
Text: In this figure the kD data is given in millimolar not micromolar units.
Experimental Endpoint: Kd (µM)
All answers are understood in µM, so give the number only.

[Q] Return reported Kd. Input compound: C=Cc1ccc(CN(CC(=O)O)CC(=O)O)cc1.[Cu+2] [Cu(II)-VBIDA, N-(4-vinyl)-benzyl iminodiacetic acid]
[A] 150
